System: AncSZ
assay name: phosphorylation enrichment, bacterial display (enrichment ratio); higher = better substrate or ligand; peptides without Tyr show the background
The following sequences are shown together with reported phosphorylation enrichment values.
recorded metric: phosphorylation enrichment

biopolymer sequence	test result
HEKKVYSFCGT [RPS6KA3_Y226_A225V]	0.991
FQVRRYDCDCD [CRYGS_Y21_G18V]	1.19
EGQKIYIDDNN [PIP4K2A_Y246]	1.04
RESFKYFPSSL [CXXC1_Y218_YF]	0.748
SHNKYYMLVAH [MFSD8_Y134_R139H]	0.821
EKKDVYKAGEQ [CFH_Y1008]	1.08
LHAAAYQNALA [UQCRC2_Y182_R183Q]	1.01
LNCIYYKDQTG [RS1_Y166_W163C]	3.56
SYDLDYDSVQP [MYC_Y16_N11S]	2.5
DYSLKYPTDIP [APC_Y1183_A1184P]	0.867
LFVDVYGPSVP [NUBPL_Y109_D105Y_YF]	1.23
IHHIDYYKETT [FGFR1_Y653_K656E]	0.694
NKYTTYLPRLP [C9orf24_Y126]	0.575
LVMFISAIFGM [SCN1A_Y1684_Y1684S]	1.69

###

target: Grb2 SH2 (UniProt P62993)
Sequence (P62993 whole entry, looked up): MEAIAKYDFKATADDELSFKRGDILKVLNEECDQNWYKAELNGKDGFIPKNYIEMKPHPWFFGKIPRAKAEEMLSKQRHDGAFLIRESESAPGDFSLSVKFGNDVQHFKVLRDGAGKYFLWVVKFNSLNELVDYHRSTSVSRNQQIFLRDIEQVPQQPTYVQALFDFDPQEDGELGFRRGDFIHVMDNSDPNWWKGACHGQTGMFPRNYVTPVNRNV
assay name: SH2 binding enrichment of the phosphorylated peptide, bacterial display (enrichment ratio); higher = better substrate or ligand; peptides without Tyr show the background
Given measured SH2 binding enrichment, output label 1 if it is greater than or equal to 1 and label 0 if not.

biopolymer sequence	target	group
FQVRRYDCDCD [CRYGS_Y21_G18V]	Grb2 SH2 (UniProt P62993)	label 0
AELVQYFMEHH [PTPN11_Y80_YF]	Grb2 SH2 (UniProt P62993)	label 1
FFHCTYKKRMI [CLEC12A_Y242_YF]	Grb2 SH2 (UniProt P62993)	label 1
GLAELYEFKKK [CKAP5_Y1854_YF]	Grb2 SH2 (UniProt P62993)	label 1
PLQKIYNYNVL [SLC4A1_Y553_T552I]	Grb2 SH2 (UniProt P62993)	label 0
LFRFGYANTSE [SI_Y1233_C1229Y_YF]	Grb2 SH2 (UniProt P62993)	label 1
NRDNTYNRVSE [FGA_Y127]	Grb2 SH2 (UniProt P62993)	label 0
EAESWYQTKYE [KRT75_Y342]	Grb2 SH2 (UniProt P62993)	label 0
LSNFNYEQRGA [API5_Y497_G493S]	Grb2 SH2 (UniProt P62993)	label 0
SDFFAYSPVQE [H6PD_Y449_R453Q_YF]	Grb2 SH2 (UniProt P62993)	label 0
KNEVLYDEENH [ARFGEF1_Y314_G316E]	Grb2 SH2 (UniProt P62993)	label 0
ILTLKYPIERG [ACTA1_Y71_H75R]	Grb2 SH2 (UniProt P62993)	label 0
PTYEHYANSTQ [SLC12A3_Y70]	Grb2 SH2 (UniProt P62993)	label 1
PATINYLFEKG [NDUFS8_Y84_P85L]	Grb2 SH2 (UniProt P62993)	label 1

###

target: FGFR1 (UniProt P11362)
Sequence (P11362 whole entry, looked up): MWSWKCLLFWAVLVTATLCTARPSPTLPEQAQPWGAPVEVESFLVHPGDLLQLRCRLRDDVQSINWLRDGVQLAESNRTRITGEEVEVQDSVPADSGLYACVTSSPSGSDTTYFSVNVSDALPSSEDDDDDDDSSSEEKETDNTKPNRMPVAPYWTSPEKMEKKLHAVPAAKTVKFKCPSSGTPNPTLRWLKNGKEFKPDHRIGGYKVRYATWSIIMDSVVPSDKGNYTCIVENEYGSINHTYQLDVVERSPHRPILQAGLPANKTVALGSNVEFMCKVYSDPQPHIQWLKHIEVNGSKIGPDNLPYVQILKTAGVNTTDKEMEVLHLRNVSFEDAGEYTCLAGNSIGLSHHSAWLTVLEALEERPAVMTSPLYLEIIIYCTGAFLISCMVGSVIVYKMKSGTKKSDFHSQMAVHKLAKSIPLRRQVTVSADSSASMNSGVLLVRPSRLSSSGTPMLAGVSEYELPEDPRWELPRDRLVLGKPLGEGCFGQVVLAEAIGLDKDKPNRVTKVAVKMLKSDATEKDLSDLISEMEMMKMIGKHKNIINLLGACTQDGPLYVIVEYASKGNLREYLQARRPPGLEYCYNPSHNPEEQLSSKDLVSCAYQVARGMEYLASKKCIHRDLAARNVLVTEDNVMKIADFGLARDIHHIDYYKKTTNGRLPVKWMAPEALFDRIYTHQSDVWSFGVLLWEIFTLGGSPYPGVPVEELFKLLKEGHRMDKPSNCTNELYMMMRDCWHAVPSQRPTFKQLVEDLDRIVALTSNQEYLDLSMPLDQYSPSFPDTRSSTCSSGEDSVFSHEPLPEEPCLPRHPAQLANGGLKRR
assay name: phosphorylation enrichment, bacterial display (enrichment ratio); higher = better substrate or ligand; peptides without Tyr show the background
Given measured phosphorylation enrichment, output Criterion met if it is greater than or equal to 0.5 and Criterion not met if not.

biopolymer sequence	target	group
HHTDEYEYDEL [TGM1_Y134]	FGFR1 (UniProt P11362)	Criterion met
FQVRRYDCDCD [CRYGS_Y21_G18V]	FGFR1 (UniProt P11362)	Criterion met
AKFPFYEKNKK [FOXL2_Y91]	FGFR1 (UniProt P11362)	Criterion not met
NTGGYYDLYGG [PTPN11_Y63_D61G]	FGFR1 (UniProt P11362)	Criterion met
LESETYRRLLD [KRT12_Y429_I426S]	FGFR1 (UniProt P11362)	Criterion met
QRASDYYSQQM [GBP6_Y333_A331S]	FGFR1 (UniProt P11362)	Criterion met
VIESSYTSADG [DHCR7_Y382_C380S]	FGFR1 (UniProt P11362)	Criterion met
FQLENYCNGGG [INS_Y108_YF]	FGFR1 (UniProt P11362)	Criterion met
PQDVTYARLHS [LILRB4_Y412_Q414R]	FGFR1 (UniProt P11362)	Criterion met
LQTFRYHGHSM [PDHA1_Y289_YF]	FGFR1 (UniProt P11362)	Criterion met
PLDEEYFTLQI [TP53_Y327_G325E]	FGFR1 (UniProt P11362)	Criterion met
TDTAAYEERVR [SPTB_Y474]	FGFR1 (UniProt P11362)	Criterion met
IDAICYFRMEN [NPHS2_Y194_YF]	FGFR1 (UniProt P11362)	Criterion met
DEEPPDRGPFC [SASH1_Y551_Y551D]	FGFR1 (UniProt P11362)	Criterion met
EDSEYYRAFEE [CASQ2_Y179_K180R]	FGFR1 (UniProt P11362)	Criterion met
KKKKQYKGKYL [CASK_Y708_D710G]	FGFR1 (UniProt P11362)	Criterion not met
DNEYAYLKAII [HNF4A_Y288]	FGFR1 (UniProt P11362)	Criterion met
YIIFIYAMKKK [SLCO1B1_Y645_L643F]	FGFR1 (UniProt P11362)	Criterion met
HSGVSYYINLC [IGF2R_Y2024_N2020S]	FGFR1 (UniProt P11362)	Criterion met
HLVLNYGVCVC [JAK2_Y613]	FGFR1 (UniProt P11362)	Criterion met
YRQNGYIPGSN [PCDHGA1_Y895_V894G]	FGFR1 (UniProt P11362)	Criterion not met
NTQRPYFKGGG [TYROBP_Y111_YF]	FGFR1 (UniProt P11362)	Criterion not met
NTPNAYLRVNV [ADD2_Y440_T439A]	FGFR1 (UniProt P11362)	Criterion not met
EWLRRHLENGK [HLA-A_Y195_Y195H]	FGFR1 (UniProt P11362)	Criterion not met
RVLKLYGCSPS [ASTL_Y279]	FGFR1 (UniProt P11362)	Criterion not met
NRLTDYFEPLL [BBS10_Y536_YF]	FGFR1 (UniProt P11362)	Criterion met
FFNSEYGELSE [FLT4_Y1337_YF]	FGFR1 (UniProt P11362)	Criterion not met
HCEDGYPGGSD [CTNND1_Y221_Y217C]	FGFR1 (UniProt P11362)	Criterion met
YPKAHYHWLVL [APTX_Y214_R213H]	FGFR1 (UniProt P11362)	Criterion met
HDHFGYRQSVT [CD55_Y245_R240H_YF]	FGFR1 (UniProt P11362)	Criterion not met
MPIPMYDGSQA [CARMIL1_Y637_A639G]	FGFR1 (UniProt P11362)	Criterion not met
NVDGKYSYLKV [GRM3_Y478_G475D]	FGFR1 (UniProt P11362)	Criterion met
DPGVSYHTREE [PDHA1_Y301_R302H]	FGFR1 (UniProt P11362)	Criterion not met
GGRIDYIAGLD [APRT_Y60]	FGFR1 (UniProt P11362)	Criterion not met
DFFDLYGGEKF [PTPN11_Y66_YF]	FGFR1 (UniProt P11362)	Criterion met
KELANYYKLHH [AK7_Y390]	FGFR1 (UniProt P11362)	Criterion met
CTTIHYNFMRN [TP53_Y234_C238R_YF]	FGFR1 (UniProt P11362)	Criterion met
IGEGTSGVVYK [CDK2_Y15_Y15S]	FGFR1 (UniProt P11362)	Criterion not met
FSKTQYNQVPS [CXADR_Y318_YF]	FGFR1 (UniProt P11362)	Criterion met
FDAHNYHPLPV [OAT_Y55_G51D_YF]	FGFR1 (UniProt P11362)	Criterion met
ISDDKYGRIRL [ARCN1_Y310]	FGFR1 (UniProt P11362)	Criterion not met
PQIVNYSPDCI [LDHB_Y128_K127N]	FGFR1 (UniProt P11362)	Criterion met
MGRVKYGAFIN [GLB1_Y485_N484K_YF]	FGFR1 (UniProt P11362)	Criterion not met
CTTIHYIFMCN [TP53_Y234_N235I_YF]	FGFR1 (UniProt P11362)	Criterion not met
IGSQRYQLGVR [RB1_Y446_K447Q]	FGFR1 (UniProt P11362)	Criterion not met
YQNGMYGLHQD [SGSH_Y89_H84Y]	FGFR1 (UniProt P11362)	Criterion met
FKTPTYPFLLP [PLD2_Y578_YF]	FGFR1 (UniProt P11362)	Criterion met
NKYTTYLPRLP [C9orf24_Y126]	FGFR1 (UniProt P11362)	Criterion not met
YAKSVYWDNTL [NUP107_Y296_E298D]	FGFR1 (UniProt P11362)	Criterion met
ALDRPYTSKHS [NANS_Y71_E68D]	FGFR1 (UniProt P11362)	Criterion not met
GCAGKYIAMVM [CYP19A1_Y441]	FGFR1 (UniProt P11362)	Criterion not met

These measurements were taken from the supplement of paper PMC10065799.
